# ASSAY_METHOD_TEXT: Oral bioavailability in rat
# Format: ADME, organism-based
# CONDITIONS_USED: in vivo
QUANTITY_MEASURED: bioavailability (%)
Reply numerically in %, unit not repeated.

[ask] Note bioavailability for the molecule shown: CCC1(C)NC(=O)c2cc(S(=O)(=O)Nc3ccc(F)cc3F)cc(Cl)c2NC1=O (stereo unspecified)
[reply] 74

----------
# MEASUREMENT_TARGET: Diacylglycerol O-acyltransferase 2 (Homo sapiens, UniProt Q96PD7)
# Sequence (Q96PD7 whole entry): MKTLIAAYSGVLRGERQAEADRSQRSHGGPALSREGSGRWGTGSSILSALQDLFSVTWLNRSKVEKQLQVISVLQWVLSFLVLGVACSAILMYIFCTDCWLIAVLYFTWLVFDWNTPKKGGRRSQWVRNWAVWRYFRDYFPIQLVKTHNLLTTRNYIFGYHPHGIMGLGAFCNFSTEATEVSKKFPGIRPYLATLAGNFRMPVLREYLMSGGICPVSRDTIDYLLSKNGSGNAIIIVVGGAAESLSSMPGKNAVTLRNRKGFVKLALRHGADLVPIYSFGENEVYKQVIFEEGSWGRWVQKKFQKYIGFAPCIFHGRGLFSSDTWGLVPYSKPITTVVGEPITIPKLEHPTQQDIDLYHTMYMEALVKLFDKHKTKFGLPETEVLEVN
# ASSAY_METHOD_TEXT: Inhibition of recombinant human DGAT2
QUANTITY_MEASURED: IC50

[ask] Note IC50 for the molecule shown: `CC(C)(C)c1cc(C(C)(C)C)nc(N2CCn3c(nnc3-c3ccc(OC(F)(F)F)cc3)C2)n1`
[reply] > 30 µM

----------
# ASSAY_METHOD_TEXT: Oral bioavailability in mouse
# Assay type: ADME, organism-based
# CONDITIONS_USED: in vivo
QUANTITY_MEASURED: bioavailability (%)
Reply numerically in %, unit not repeated.

[ask] Note bioavailability for the molecule shown: CCC1(C)NC(=O)c2cc(S(=O)(=O)Nc3ccc(F)cc3F)cc(Cl)c2NC1=O (stereo unspecified)
[reply] 69
